# credit: ChEMBL document CHEMBL1124673

Molecular target: Trifunctional purine biosynthetic protein adenosine-3 (Mus musculus, UniProt Q64737)
Sequence (Q64737 whole entry): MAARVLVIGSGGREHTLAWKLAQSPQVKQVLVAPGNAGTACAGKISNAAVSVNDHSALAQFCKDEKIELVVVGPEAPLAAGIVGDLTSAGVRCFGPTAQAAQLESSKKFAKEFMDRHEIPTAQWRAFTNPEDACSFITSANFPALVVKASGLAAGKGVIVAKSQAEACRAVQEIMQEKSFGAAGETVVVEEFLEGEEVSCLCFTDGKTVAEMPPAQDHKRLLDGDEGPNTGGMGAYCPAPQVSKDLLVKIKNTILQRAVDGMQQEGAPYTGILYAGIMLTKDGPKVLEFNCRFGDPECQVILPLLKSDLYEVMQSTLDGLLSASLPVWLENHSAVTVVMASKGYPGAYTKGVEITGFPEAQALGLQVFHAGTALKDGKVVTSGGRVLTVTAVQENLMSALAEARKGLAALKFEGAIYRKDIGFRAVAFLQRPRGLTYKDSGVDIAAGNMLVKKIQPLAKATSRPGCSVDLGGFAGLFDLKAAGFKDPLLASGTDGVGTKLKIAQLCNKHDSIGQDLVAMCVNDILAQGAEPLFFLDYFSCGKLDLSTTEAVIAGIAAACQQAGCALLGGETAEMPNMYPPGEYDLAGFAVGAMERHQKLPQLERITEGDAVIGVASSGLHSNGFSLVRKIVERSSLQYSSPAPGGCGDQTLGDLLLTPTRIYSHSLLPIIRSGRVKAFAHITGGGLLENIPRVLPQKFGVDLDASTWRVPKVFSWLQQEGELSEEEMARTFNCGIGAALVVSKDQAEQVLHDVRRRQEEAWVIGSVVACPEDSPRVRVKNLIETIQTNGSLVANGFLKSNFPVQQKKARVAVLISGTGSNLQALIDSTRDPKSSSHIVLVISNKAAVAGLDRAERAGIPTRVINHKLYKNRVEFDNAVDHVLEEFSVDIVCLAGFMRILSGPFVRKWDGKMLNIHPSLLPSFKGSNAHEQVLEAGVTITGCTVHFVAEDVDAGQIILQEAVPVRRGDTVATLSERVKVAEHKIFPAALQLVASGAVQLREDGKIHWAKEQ
Experiment: Thermodynamic dissociation constant (KD) was measured upon binding to GAR TFase in mice
measurement.kind: Kd
Write the numeric value and follow it with the unit.

Field Kd (Trifunctional purine biosynthetic protein adenosine-3 (Mus musculus, UniProt Q64737)), entry Nc1nc2ccc(CN(C(=O)CSCC(=O)NC3O[C@H](COP(=O)(O)O)[C@@H](O)[C@H]3O)c3ccc(C(=O)N[C@H](CCC(=O)O)C(=O)O)cc3)cc2c(=O)[nH]1 (stereo partly specified) : 0.25 nM

* * *

Target: Trifunctional purine biosynthetic protein adenosine-3 (Mus musculus)
Assay: Compound was tested for inhibition constant against GAR TFase in mice
pKi: −log10 of the molar value.
measurement.kind: pKi

Note to self: pKi recorded for Nc1nc2ccc(CN(C(=O)CSCC(=O)NC3O[C@H](COP(=O)(O)O)[C@@H](O)[C@H]3O)c3ccc(C(=O)N[C@H](CCC(=O)O)C(=O)O)cc3)cc2c(=O)[nH]1 (stereo partly specified) was < 7.00
